# ASSAY TARGET: PDE4B1 enzyme (Homo sapiens, UniProt Q07343)
# Sequence (Q07343 whole entry): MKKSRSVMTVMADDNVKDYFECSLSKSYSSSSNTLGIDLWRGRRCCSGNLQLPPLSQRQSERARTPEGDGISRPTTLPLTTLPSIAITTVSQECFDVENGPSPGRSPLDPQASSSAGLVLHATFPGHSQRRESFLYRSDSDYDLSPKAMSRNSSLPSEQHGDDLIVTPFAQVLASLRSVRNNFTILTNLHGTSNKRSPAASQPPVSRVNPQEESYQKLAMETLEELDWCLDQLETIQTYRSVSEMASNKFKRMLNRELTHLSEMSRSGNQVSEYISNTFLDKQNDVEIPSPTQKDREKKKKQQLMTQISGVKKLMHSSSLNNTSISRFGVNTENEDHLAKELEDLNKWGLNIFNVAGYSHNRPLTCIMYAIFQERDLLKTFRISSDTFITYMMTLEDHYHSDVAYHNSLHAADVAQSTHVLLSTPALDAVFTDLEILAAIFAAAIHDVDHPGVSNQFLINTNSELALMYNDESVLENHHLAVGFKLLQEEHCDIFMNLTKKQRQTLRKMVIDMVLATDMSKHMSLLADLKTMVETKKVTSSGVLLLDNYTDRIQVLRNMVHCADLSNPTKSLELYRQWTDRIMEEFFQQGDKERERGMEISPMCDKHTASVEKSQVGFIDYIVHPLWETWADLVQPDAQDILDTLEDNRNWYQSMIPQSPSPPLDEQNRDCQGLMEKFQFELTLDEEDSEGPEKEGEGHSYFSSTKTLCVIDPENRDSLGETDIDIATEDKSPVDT
RECORDED METRIC: pIC50
As a rule, pIC50 stands for the negative log10 of the concentration, concentration in M.

Form: Entry = COc1ccc(-c2cncc([C@@H]3COB(O)C3)n2)c2c1OC(C)(C)CC2 | System = PDE4B1 enzyme (Homo sapiens, UniProt Q07343) | pIC50 = ____
9.77

----------
# Test system: TNF-α release in PBMCs
# ASSAY PROCEDURE: Inhibition of LPS-induced TNF-α release in peripheral blood mononuclear cells
# Format: cell-based
# RUN CONDITIONS: PBMC; LPS 0.1 ng/ml, 24 hours, ELISA
RECORDED METRIC: IC50 (nM)
// note: answer is a bare numeric in nM

Lookup: IC50 / TNF-α release in PBMCs / COc1ccc(-c2cncc([C@@H]3COB(O)C3)n2)c2c1OC(C)(C)CC2
0.055
